target: D(2) dopamine receptor (Rattus norvegicus)
Sequence (P61169 whole entry): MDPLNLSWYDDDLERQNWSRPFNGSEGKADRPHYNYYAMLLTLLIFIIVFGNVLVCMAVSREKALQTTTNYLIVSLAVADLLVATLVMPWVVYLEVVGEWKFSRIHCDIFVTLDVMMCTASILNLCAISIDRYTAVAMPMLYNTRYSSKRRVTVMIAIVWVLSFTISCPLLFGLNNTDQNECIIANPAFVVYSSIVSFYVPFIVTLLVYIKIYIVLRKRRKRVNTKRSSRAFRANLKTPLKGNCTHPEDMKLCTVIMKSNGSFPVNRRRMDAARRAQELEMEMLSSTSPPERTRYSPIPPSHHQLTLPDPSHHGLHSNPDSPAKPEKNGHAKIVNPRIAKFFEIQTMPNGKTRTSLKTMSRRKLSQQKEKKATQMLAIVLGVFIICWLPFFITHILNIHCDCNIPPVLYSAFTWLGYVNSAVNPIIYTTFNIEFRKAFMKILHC
protocol: Inhibitory activity against rat limbic tissue Dopamine receptor D2
Measured Ki accompanies every entry in the list below.
Answer format: numeric, nM implied, no suffix.

# example entries with known answers
molecule smiles | measured value
COc1ccccc1N1CCN(CCC(=O)NC23C[C@H]4C[C@@H](C2)C[C@@H](C3)C4)CC1.Cl.Cl | 93
O=C(N[C@H](Cc1ccccc1)CN1CCN(c2ncccn2)CC1)C12C[C@H]3C[C@@H](C1)C[C@@H](C2)C3 | 20

Note: attention shifts to another entry.
Exam item: Please supply the value of reported Ki for the item `Cl.Cl.O=C(OCCN1CCN(c2ncccn2)CC1)C12C[C@H]3C[C@@H](C1)C[C@@H](C2)C3`
Marked response: 708
